Sourced from the supplement of paper PMC5998384

Test system: HeLa Kyoto;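 also: HeLa Kyoto cells arrested at G1/S by double thymidine block, proteins quantified by TMT10plex mass spectrometry in mild NP-40 versus SDS extracts, three biological replicates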
Measurement Protocol: solubility in G1/S (NP-40 vs SDS abundance) (log2 ratio); higher = more soluble
Reported Conditions: cell cycle stage: G1/S
Quantity Kind: solubility in G1/S (log2)

Substance	System Tested	Quantity Kind	Reported Value
MALRLLRRAARGAAAAALLRLKASLAADIPRLGYSSSSHHKYIPRRAVLYVPGNDEKKIKKIPSLNVDCAVLDCEDGVAANKKNEARLRIVKTLEDIDLGPTEKCVRVNSVSSGLAEEDLETLLQSRVLPSSLMLPKVESPEEIQWFADKFSFHLKGRKLEQPMNLIPFVETAMGLLNFKAVCEETLKVGPQVGLFLDAVVFGGEDFRASIGATSSKETLDILYARQKIVVIAKAFGLQAIDLVYIDFRDGAGLLRQSREGAAMGFTGKQVIHPNQIAVVQEQFSPSPEKIKWAEELIAAFKEHQQLGKGAFTFQGSMIDMPLLKQAQNTVTLATSIKEK [CLYBL]	HeLa Kyoto	solubility in G1/S (log2)	-0.168
MSFRKVNIIILVLAVALFLLVLHHNFLSLSSLLRNEVTDSGIVGPQPIDFVPNALRHAVDGRQEEIPVVIAASEDRLGGAIAAINSIQHNTRSNVIFYIVTLNNTADHLRSWLNSDSLKSIRYKIVNFDPKLLEGKVKEDPDQGESMKPLTFARFYLPILVPSAKKAIYMDDDVIVQGDILALYNTALKPGHAAAFSEDCDSASTKVVIRGAGNQYNYIGYLDYKKERIRKLSMKASTCSFNPGVFVANLTEWKRQNITNQLEKWMKLNVEEGLYSRTLAGSITTPPLLIVFYQQHSTIDPMWNVRHLGSSAGKRYSPQFVKAAKLLHWNGHLKPWGRTASYTDVWEKWYIPDPTGKFNLIRRYTEISNIK [GLT8D1]	HeLa Kyoto	solubility in G1/S (log2)	0.144
MSYDRAITVFSPDGHLFQVEYAQEAVKKGSTAVGVRGRDIVVLGVEKKSVAKLQDERTVRKICALDDNVCMAFAGLTADARIVINRARVECQSHRLTVEDPVTVEYITRYIASLKQRYTQSNGRRPFGISALIVGFDFDGTPRLYQTDPSGTYHAWKANAIGRGAKSVREFLEKNYTDEAIETDDLTIKLVIKALLEVVQSGGKNIELAVMRRDQSLKILNPEEIEKYVAEIEKEKEENEKKKQKKAS [PSMA7]	HeLa Kyoto	solubility in G1/S (log2)	0.332
MGVEGCTKCIKYLLFVFNFVFWLAGGVILGVALWLRHDPQTTNLLYLELGDKPAPNTFYVGIYILIAVGAVMMFVGFLGCYGAIQESQCLLGTFFTCLVILFACEVAAGIWGFVNKDQIAKDVKQFYDQALQQAVVDDDANNAKAVVKTFHETLDCCGSSTLTALTTSVLKNNLCPSGSNIISNLFKEDCHQKIDDLFSGKLYLIGIAAIVVAVIMIFEMILSMVLCCGIRNSSVY [CD81]	HeLa Kyoto	solubility in G1/S (log2)	0.0932
TRIOBP	HeLa Kyoto	solubility in G1/S (log2)	0.139
MHKAGLLGLCARAWNSVRMASSGMTRRDPLANKVALVTASTDGIGFAIARRLAQDGAHVVVSSRKQQNVDQAVATLQGEGLSVTGTVCHVGKAEDRERLVATAVKLHGGIDILVSNAAVNPFFGSIMDVTEEVWDKTLDINVKAPALMTKAVVPEMEKRGGGSVVIVSSIAAFSPSPGFSPYNVSKTALLGLTKTLAIELAPRNIRVNCLAPGLIKTSFSRMLWMDKEKEESMKETLRIRRLGEPEDCAGIVSFLCSEDASYITGETVVVGGGTPSRL [DHRS4]	HeLa Kyoto	solubility in G1/S (log2)	-0.159
MSSEMLPAFIETSNVDKKQGINEDQEESQKPRLGEGCEPISKRQMKKLIKQKQWEEQRELRKQKRKEKRKRKKLERQCQMEPNSDGHDRKRVRRDVVHSTLRLIIDCSFDHLMVLKDIKKLHKQIQRCYAENRRALHPVQFYLTSHGGQLKKNMDENDKGWVNWKDIHIKPEHYSELIKKEDLIYLTSDSPNILKELDESKAYVIGGLVDHNHHKGLTYKQASDYGINHAQLPLGNFVKMNSRKVLAVNHVFEIILEYLETRDWQEAFFTILPQRKGAVPTDKACESASHDNQSVRMEEGGSDSDSSEEEYSRNELDSPHEEKQDKENHTESTVNSLPH [TRMT10A]	HeLa Kyoto	solubility in G1/S (log2)	-0.0218
MATELEYESVLCVKPDVSVYRIPPRASNRGYRASDWKLDQPDWTGRLRITSKGKTAYIKLEDKVSGELFAQAPVEQYPGIAVETVTDSSRYFVIRIQDGTGRSAFIGIGFTDRGDAFDFNVSLQDHFKWVKQESEISKESQEMDARPKLDLGFKEGQTIKLCIGNITNKKGGASKPRTARGGGLSLLPPPPGGKVTIPPPSSSVAISNHVTPPPIPKSNHGGSDADILLDLDSPAPVTTPAPTPVSVSNDLWGDFSTASSSVPNQAPQPSNWVQF [NECAP1]	HeLa Kyoto	solubility in G1/S (log2)	0.521
MDGGDDGNLIIKKRFVSEAELDERRKRRQEEWEKVRKPEDPEECPEEVYDPRSLYERLQEQKDRKQQEYEEQFKFKNMVRGLDEDETNFLDEVSRQQELIEKQRREEELKELKEYRNNLKKVGISQENKKEVEKKLTVKPIETKNKFSQAKLLAGAVKHKSSESGNSVKRLKPDPEPDDKNQEPSSCKSLGNTSLSGPSIHCPSAAVCIGILPGLGAYSGSSDSESSSDSEGTINATGKIVSSIFRTNTFLEAP [FAM192A]	HeLa Kyoto	solubility in G1/S (log2)	0.194
MKPGFSPRGGGFGGRGGFGDRGGRGGRGGFGGGRGRGGGFRGRGRGGGGGGGGGGGGGRGGGGFHSGGNRGRGRGGKRGNQSGKNVMVEPHRHEGVFICRGKEDALVTKNLVPGESVYGEKRVSISEGDDKIEYRAWNPFRSKLAAAILGGVDQIHIKPGAKVLYLGAASGTTVSHVSDIVGPDGLVYAVEFSHRSGRDLINLAKKRTNIIPVIEDARHPHKYRMLIAMVDVIFADVAQPDQTRIVALNAHTFLRNGGHFVISIKANCIDSTASAEAVFASEVKKMQQENMKPQEQLTLEPYERDHAVVVGVYRPPPKVKN [FBL]	HeLa Kyoto	solubility in G1/S (log2)	-1.97
MAEPLQPDPGAAEDAAAQAVETPGWKAPEDAGPQPGSYEIRHYGPAKWVSTSVESMDWDSAIQTGFTKLNSYIQGKNEKEMKIKMTAPVTSYVEPGSGPFSESTITISLYIPSEQQFDPPRPLESDVFIEDRAEMTVFVRSFDGFSSAQKNQEQLLTLASILREDGKVFDEKVYYTAGYNSPVKLLNRNNEVWLIQKNEPTKENE [HEBP2]	HeLa Kyoto	solubility in G1/S (log2)	0.297
